Test system: A498 renal
Assay procedure: NCI-60 one-dose screen, 48 h
Condition label: 10 µM
This is part of a sample that, as a whole, favours compounds with a hit. Of some 83,000 tested, about 20% had one in any assay. Activity calls are given as the source filed them. Rule for the calls: active = growth percent below 10; inactive = the rest.
Pick from 1 (yes) for active, 0 (no) for inactive when you respond.

> print(dat)
                                   compound  target.system   class
1  CSc1ccc2c(c1)C(N1CCN(C)CC1)Cc1ccccc1S2 (centres undefined)     A498 renal  0 (no)

Would you mind telling me which call this test gave Cc1cc(NCCCN(C)C)c2ccc3c(ccc4c(NCCCN(C)C)cc(C)nc43)c2n1 ?
1 (yes)

For CN(C)CCC(=O)c1c[nH]c2ccccc12 , what call appears in the results of this test?
0 (no)

// outcome(item) with item = O=c1[nH]cc(F)c(=O)[nH]1
0 (no)
